Below, each entry is listed with its recorded pEC50.
TARGET DESC: T1, recombinant cynomolgus monkey CD73 extracellular domain (Trp27-Lys546) (cynomolgus monkey, UniProt P21589 27-547 (human entry))
T1 construct: also called cynoCD73; recombinant monkey CD73 extracellular domain
T1 chain: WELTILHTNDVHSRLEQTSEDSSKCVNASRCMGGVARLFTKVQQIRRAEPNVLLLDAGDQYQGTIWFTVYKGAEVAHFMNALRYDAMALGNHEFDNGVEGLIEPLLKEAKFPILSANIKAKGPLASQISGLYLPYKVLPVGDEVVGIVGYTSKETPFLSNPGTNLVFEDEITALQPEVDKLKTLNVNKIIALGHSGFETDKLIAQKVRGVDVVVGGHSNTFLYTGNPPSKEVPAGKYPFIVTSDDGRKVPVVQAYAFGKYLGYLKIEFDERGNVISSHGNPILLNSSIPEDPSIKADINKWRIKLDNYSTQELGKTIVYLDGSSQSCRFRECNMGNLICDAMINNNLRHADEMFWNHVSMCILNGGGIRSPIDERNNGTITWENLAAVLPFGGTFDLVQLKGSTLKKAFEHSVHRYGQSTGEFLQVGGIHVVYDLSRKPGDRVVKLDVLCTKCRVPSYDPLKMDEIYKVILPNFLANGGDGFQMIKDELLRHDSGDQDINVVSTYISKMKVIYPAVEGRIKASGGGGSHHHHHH
PROTOCOL: ELISA, plate coated with recombinant CD73 extracellular domain
Value format note: pEC50 is -log10 of concentration (mol/L); just state the number.

BINDER: CD73 antibody 22C12 (antibody, V domains shown, Mouse variable regions on human IgG heavy chain constant region and human kappa constant region (chimeric IgG); also called Clone 22C12; mAb22C12) VH: QVQFQQSGAELARPGASVKLSCKASGYTFTGYWIQWVKQRPGQGLEWIGAIYPGDDDTRYTQKFKGRATLTADTSSSTAYMQLSSLASEDSAVYYCARGNWDDWDFDVWGAGTTVTVSS VL: DIQMTQTTSSLSASLGDRVTISCRASQDISNYLNWYQQKPDGTVKLLIHYTSRLHSGVPSRFSGSGSGTDYSLTISNLEQEDIATYFCQQGDTLPWTFGGGTKLEIK
pEC50: 10.30

Enquiry: Data request, read-out pEC50, for CD73 antibody 8A8 (antibody, V domains shown, Mouse variable regions on human IgG heavy chain constant region and human kappa constant region (chimeric IgG); also called Clone 8A8) VH: QVQFQQSGAELARPGASVKLSCKASGYIFTSYWIQWIKQRPGQGLEWIGAIYPGDGDTRYTQKFKGKATLTADKSSSTAYMQLRSLASEDSAVYYCAGFASWGQGTLLTVSA VL: DIQMTQSPSSLSASLGERVSLTCRASQDIGESLIWLQQEPDGTIKRLIYATSSLDSGVPKRFSGSRSGSDYSLSISSLESDDFVDYYCLQYSSSPYTFGGGTKLEIK
Return: 10.70

Enquiry: Next: CD73 antibody 2H2 (antibody, V domains shown, also called Clone 2H2) VH: EVKLVESGGGLVQPGGSLKLSCATSGFTFSDYYMYWVRQTPEKRLEWVAYISNVGGSTYYPDTVKGRFTISRDNAKNTLYLQMSRLKSEDTAMYYCARGDGYYGYYFDVWGAGTTVTVSS VL: ENVLTQSPAIMSASPGEKVTMTCSASSSVSYMHWYQQKSGTSPKRWIYDTSKLASGVPTRFSGSGSGTSFSLTISSMEAEDAATYYCQQWSSNPYTFGGGTKLEIK
Return: 10.70
